Origin of measurements: ChEMBL document CHEMBL1133105

Test system: Leishmania infantum
Measurement Notes: Percentage of activity against Leishmania infantum at 3.13 uM
Assay type: functional
Label Criterion met when Percent antileishmanial activity (reduction of parasite load) < 40%; otherwise Criterion not met.

Some entries whose results are on file:
{"Molecule": "COc1ccc2nc3cc(Cl)ccc3c(NCCCN(CCCNc3c4ccc(Cl)cc4nc4ccc(OC)cc34)C(=O)C(NC(=O)OC(C)(C)C)C(C)C)c2c1 (centres undefined)", "Assigned Label": "Criterion not met"}
{"Molecule": "COc1ccc2nc3cc(Cl)ccc3c(NCCCN(CCCNc3c4ccc(Cl)cc4nc4ccc(OC)cc34)C(=O)C(C)N)c2c1 (centres undefined)", "Assigned Label": "Criterion met"}
{"Molecule": "COc1ccc2nc3cc(Cl)ccc3c(NCCCN(CCCNc3c4ccc(Cl)cc4nc4ccc(OC)cc34)C(=O)C(CNC(=O)OC(C)(C)C)NC(=O)OC(C)(C)C)c2c1 (centres undefined)", "Assigned Label": "Criterion not met"}
{"Molecule": "COc1ccc2nc3cc(Cl)ccc3c(NCCCN(CCCNc3c4ccc(Cl)cc4nc4ccc(OC)cc34)C(=O)C(COCc3ccccc3)NC(=O)OC(C)(C)C)c2c1 (centres undefined)", "Assigned Label": "Criterion not met"}
{"Molecule": "COc1ccc2nc3cc(Cl)ccc3c(NCCCN(CCCNc3c4ccc(Cl)cc4nc4ccc(OC)cc34)C(=O)CNC(=O)C(C)NC(=O)OC(C)(C)C)c2c1 (centres undefined)", "Assigned Label": "Criterion met"}

Criterion: Percent antileishmanial activity (reduction of parasite load) strictly below 40%. Is it met by COc1ccc2nc3cc(Cl)ccc3c(NCCCN(CCCNc3c4ccc(Cl)cc4nc4ccc(OC)cc34)C(=O)C(COC(C)=O)NC(=O)OC(C)(C)C)c2c1 (centres undefined) ?
Criterion not met

Criterion: Percent antileishmanial activity (reduction of parasite load) strictly below 40%. Is it met by "COc1ccc2nc3cc(Cl)ccc3c(NCCCCCCCCNc3c4ccc(Cl)cc4nc4ccc(OC)cc34)c2c1" ?
Criterion not met
